measured-on: TFAP2A (Homo sapiens, UniProt P05549)
Sequence (P05549 whole entry): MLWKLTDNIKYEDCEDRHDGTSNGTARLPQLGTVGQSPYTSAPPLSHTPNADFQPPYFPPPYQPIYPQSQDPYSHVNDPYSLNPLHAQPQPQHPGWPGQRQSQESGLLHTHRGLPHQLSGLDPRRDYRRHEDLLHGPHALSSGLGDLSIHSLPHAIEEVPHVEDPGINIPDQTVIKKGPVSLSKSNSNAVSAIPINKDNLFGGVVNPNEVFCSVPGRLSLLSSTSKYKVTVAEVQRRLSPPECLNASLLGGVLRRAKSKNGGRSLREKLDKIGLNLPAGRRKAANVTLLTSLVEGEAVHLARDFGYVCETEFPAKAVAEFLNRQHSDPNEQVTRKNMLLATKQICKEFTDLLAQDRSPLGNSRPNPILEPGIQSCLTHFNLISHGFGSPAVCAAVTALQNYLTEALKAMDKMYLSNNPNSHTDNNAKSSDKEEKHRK
protocol: competition; 150 mM NaCl, 50 mM Tris pH 8, 0.25% NP-40, 1 mM TCEP; 4 C, 2 h; 100 ug HeLa nuclear lysate; free competitor against 200 nM immobilised SP/KLF wild-type
cond: protein: extract
measured-endpoint: IC50 (nM)

In [3]: df
Out[3]:
                                     binder  measured_endpoint  numeric_value
0  SP/KLF wild-type (dsDNA) DNA 1: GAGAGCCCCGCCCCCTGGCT DNA 2: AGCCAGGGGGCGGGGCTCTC               IC50            215
